Below, each entry is listed alongside its reported IC50.
# TEST TARGET: truncated CRBN (319-427) (Homo sapiens (Human), UniProt Q96SW2)
# Sequence (Q96SW2 319-427): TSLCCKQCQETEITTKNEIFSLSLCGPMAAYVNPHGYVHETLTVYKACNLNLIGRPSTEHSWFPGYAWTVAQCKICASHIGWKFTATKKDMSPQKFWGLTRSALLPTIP
# EXPERIMENT SUMMARY: Fluorescence binding assay (fluorescence quenching), affinity to E3-CEREBLON (CRBN)-ubiquitin ligase
# CONDITION SET: ubiquitination moiety, pH 6.5

COMPOUND: O=C1Cc2ccc(OC3CCNCC3)cc2N1
TEST TARGET: truncated CRBN (319-427) (Homo sapiens (Human), UniProt Q96SW2)
IC50: > 300 µM
//
COMPOUND: Nc1ccc(-c2ccc3c(c2)NC(=O)C3)cn1
TEST TARGET: truncated CRBN (319-427) (Homo sapiens (Human), UniProt Q96SW2)
IC50: > 300 µM
//
COMPOUND: Cc1cc(-c2ccc3c(c2)NC(=O)C3)ccn1
TEST TARGET: truncated CRBN (319-427) (Homo sapiens (Human), UniProt Q96SW2)
IC50: 100 to 300 µM
//
COMPOUND: CN1C(=O)Cc2cc(C(=O)N3CCCCC3)ccc21
TEST TARGET: truncated CRBN (319-427) (Homo sapiens (Human), UniProt Q96SW2)
IC50: > 300 µM
//
COMPOUND: Nc1ncccc1-c1ccc2c(c1)CC(=O)N2
TEST TARGET: truncated CRBN (319-427) (Homo sapiens (Human), UniProt Q96SW2)
IC50: 100 to 300 µM
//
COMPOUND: CC(=O)Nc1cc(C)c(-c2ccc3c(c2)CC(=O)N3)cn1
TEST TARGET: truncated CRBN (319-427) (Homo sapiens (Human), UniProt Q96SW2)
IC50: 1 to 100 µM
//
COMPOUND: O=C1Cc2cc(-c3ccncc3)ncc2N1
TEST TARGET: truncated CRBN (319-427) (Homo sapiens (Human), UniProt Q96SW2)
IC50: > 300 µM
//
COMPOUND: O=C1Cc2ccc(NC(=O)c3cccnc3)cc2N1 [Compound 071, N-(2-oxoindolin-6-yl)nicotinamide]
TEST TARGET: truncated CRBN (319-427) (Homo sapiens (Human), UniProt Q96SW2)
IC50: 100 to 300 µM

###

# TEST TARGET: truncated CRBN (319-427) (Homo sapiens (Human))
# EXPERIMENT SUMMARY: Fluorescence binding assay (fluorescence quenching), affinity to E3-CEREBLON (CRBN)-ubiquitin ligase
# CONDITION SET: ubiquitination moiety and linker, pH 6.5

RECORD SMILES: Nc1ccc(OCCOCCOCCOCCNC(=O)c2cccc(-c3ccc4c(c3)NC(=O)C4)c2)cc1
IC50: 100 to 300 µM

RECORD SMILES: [N-]=[N+]=NCCOCCOCCOCCNc1ccc(C(=O)Nc2ccc3c(c2)CC(=O)N3)cn1
IC50: 1 to 100 µM

RECORD SMILES: [N-]=[N+]=NCCOCCOCCOCCNc1ccc(-c2ccc3c(c2)CC(=O)N3)cn1
IC50: 1 to 100 µM

RECORD SMILES: [N-]=[N+]=NCCOCCOCCOCCNc1ncccc1-c1ccc2c(c1)CC(=O)N2
IC50: 100 to 300 µM

RECORD SMILES: Nc1ccc(OCCOCCOCCOCCNC(=O)c2cccc(-c3ccc4c(c3)CC(=O)N4)c2)cc1
IC50: 1 to 100 µM

RECORD SMILES: NCCCCCNc1cc(-c2ccc3c(c2)NC(=O)C3)ccn1
IC50: > 300 µM

RECORD SMILES: [N-]=[N+]=NCCOCCOCCOCCNC(=O)c1cc(-c2ccc3c(c2)NC(=O)C3)ccn1
IC50: 1 to 100 µM

RECORD SMILES: [N-]=[N+]=NCCOCCOCCOCCNc1ncccc1-c1ccc2c(c1)NC(=O)C2
IC50: > 300 µM

###

Below, each entry is listed alongside its reported IC50.
# TEST TARGET: truncated CRBN (319-427) (Homo sapiens (Human))
# EXPERIMENT SUMMARY: Fluorescence binding assay (fluorescence quenching), affinity to E3-CEREBLON (CRBN)-ubiquitin ligase
# CONDITION SET: ubiquitination moiety, pH 6.5

COMPOUND: COc1cc(-c2ccc3c(c2)CC(=O)N3)ccn1 [Compound 041, 5-(2-methoxypyridin-4-yl)indolin-2-one]
TEST TARGET: truncated CRBN (319-427) (Homo sapiens (Human))
IC50: > 300 µM
--
COMPOUND: O=C1Cc2cc(-c3cccnc3)ccc2N1 [Compound 056, 5-(pyridin-3-yl)indolin-2-one]
TEST TARGET: truncated CRBN (319-427) (Homo sapiens (Human))
IC50: 100 to 300 µM
--
COMPOUND: CC(=O)Nc1ccc(-c2ccc3c(c2)CC(=O)N3)c(C)n1 [Compound 049]
TEST TARGET: truncated CRBN (319-427) (Homo sapiens (Human))
IC50: > 300 µM
--
COMPOUND: O=C1Cc2ccc(C(=O)N3CCCCC3)cc2N1 [Compound 029, 6-(piperidine-1-carbonyl)indolin-2-one]
TEST TARGET: truncated CRBN (319-427) (Homo sapiens (Human))
IC50: > 300 µM
--
COMPOUND: O=C1Cc2ccc(C(=O)NC3CCCCC3)cc2N1 [Compound 025, N-cyclohexyl-2-oxoindoline-6-carboxamide]
TEST TARGET: truncated CRBN (319-427) (Homo sapiens (Human))
IC50: > 300 µM
--
COMPOUND: CN1C(=O)Cc2ccc(-c3ccncc3)cc21 [Compound 008, 1-methyl-6-(pyridin-4-yl)indolin-2-one]
TEST TARGET: truncated CRBN (319-427) (Homo sapiens (Human))
IC50: > 300 µM
--
COMPOUND: CNC(=O)c1cccc(-c2ccc3c(c2)NC(=O)C3)c1 [Compound 023, N-methyl-3-(2-oxoindolin-6-yl)benzamide]
TEST TARGET: truncated CRBN (319-427) (Homo sapiens (Human))
IC50: 1 to 100 µM
--
COMPOUND: O=C1Cc2ccc(-c3ccncc3)cc2N1 [Compound 002, 6-(pyridin-4-yl)indolin-2-one]
TEST TARGET: truncated CRBN (319-427) (Homo sapiens (Human))
IC50: 100 to 300 µM
--
COMPOUND: CN1CCN(CCNC(=O)c2ccc3c(c2)NC(=O)C3)CC1 [Compound 028]
TEST TARGET: truncated CRBN (319-427) (Homo sapiens (Human))
IC50: > 300 µM
--
COMPOUND: CNc1ccc(-c2ccc3c(c2)CC(=O)N3)cn1 [Compound 046]
TEST TARGET: truncated CRBN (319-427) (Homo sapiens (Human))
IC50: 100 to 300 µM
--
COMPOUND: O=C1Cc2ccc(-c3cccnc3)cc2N1 [Compound 003, 6-(pyridin-3-yl)indolin-2-one]
TEST TARGET: truncated CRBN (319-427) (Homo sapiens (Human))
IC50: > 300 µM
--
COMPOUND: O=C1Cc2cc(-c3cccc(C(=O)N4CCNCC4)c3)ccc2N1 [Compound 055]
TEST TARGET: truncated CRBN (319-427) (Homo sapiens (Human))
IC50: 100 to 300 µM
--
COMPOUND: NC1CCCN(C(=O)c2ccc3c(c2)CC(=O)N3)C1 (stereo not shown) [Compound 081]
TEST TARGET: truncated CRBN (319-427) (Homo sapiens (Human))
IC50: > 300 µM
--
COMPOUND: O=C1Cc2ccc(-c3cnc4[nH]ccc4c3)cc2N1 [Compound 017]
TEST TARGET: truncated CRBN (319-427) (Homo sapiens (Human))
IC50: > 300 µM
--
COMPOUND: COC(=O)c1ccccc1-c1ccc2c(c1)NC(=O)C2 [Compound 079, methyl 2-(2-oxoindolin-6-yl)benzoate]
TEST TARGET: truncated CRBN (319-427) (Homo sapiens (Human))
IC50: > 300 µM
--
COMPOUND: O=C1Cc2ccc(-c3ccc(C(=O)N4CCNCC4)cc3)cc2N1 [Compound 020]
TEST TARGET: truncated CRBN (319-427) (Homo sapiens (Human))
IC50: > 300 µM

###

# TEST TARGET: truncated CRBN (319-427) (Homo sapiens (Human), UniProt Q96SW2)
# EXPERIMENT SUMMARY: Fluorescence binding assay (fluorescence quenching), affinity to E3-CEREBLON (CRBN)-ubiquitin ligase
# CONDITION SET: ubiquitination moiety, pH 6.5

MOLECULE: NC1CCN(C(=O)c2ccc3c(c2)NC(=O)C3)CC1
IC50: > 300 µM
--
MOLECULE: O=C1Cc2cc(NC(=O)c3ccncc3)ccc2N1 [Compound 059, N-(2-oxoindolin-5-yl)isonicotinamide]
IC50: 100 to 300 µM
--
MOLECULE: O=C1Cc2cc(NC(=O)c3ccnc(F)c3)ccc2N1
IC50: 100 to 300 µM
--
MOLECULE: Nc1cc(-c2ccc3c(c2)NC(=O)C3)ccn1
IC50: 100 to 300 µM
--
MOLECULE: Cn1cc(-c2ccc3c(c2)NC(=O)C3)cn1
IC50: > 300 µM
--
MOLECULE: O=C1Cc2cc(C(=O)N3CCC(c4ccccc4)CC3)ccc2N1
IC50: 100 to 300 µM
--
MOLECULE: CC(=O)Nc1ncc(-c2ccc3c(c2)CC(=O)N3)cc1C
IC50: 100 to 300 µM
--
MOLECULE: O=C1Cc2cc(C(=O)N3CCCCC3)ccc2N1
IC50: 100 to 300 µM
--
MOLECULE: CC(=O)N1CCC(C(=O)Nc2ccc3c(c2)CC(=O)N3)CC1
IC50: 100 to 300 µM
--
MOLECULE: O=C1Cc2cccc(-c3ccncc3)c2N1
IC50: > 300 µM
--
MOLECULE: O=C1Cc2ccc(-c3cccc(C(=O)N4CCNCC4)c3)cc2N1
IC50: > 300 µM
--
MOLECULE: O=C1Cc2ccc(-c3ccccn3)cc2N1
IC50: 100 to 300 µM
--
MOLECULE: O=C1Cc2ccc(C(=O)NCc3cccnc3)cc2N1
IC50: > 300 µM
--
MOLECULE: O=C1Cc2ccc(C3=CCN(C(=O)OCc4ccccc4)CC3)cc2N1
IC50: > 300 µM
--
MOLECULE: O=C1Cc2cc(C(=O)N3CCC(Cc4ccccc4)CC3)ccc2N1
IC50: > 300 µM
--
MOLECULE: CCOC(=O)c1cc(-c2ccc3c(c2)NC(=O)C3)ccn1 [Compound 014, ethyl 4-(2-oxoindolin-6-yl)picolinate]
IC50: 100 to 300 µM
--
MOLECULE: O=C1Cc2cc(-c3ccc(N4CCCCC4)nc3)ccc2N1
IC50: > 300 µM
--
MOLECULE: CC(C)(C)OC(=O)N1CCN(C(=O)c2cccc(-c3ccc4c(c3)CC(=O)N4)c2)CC1
IC50: 1 to 100 µM
--
MOLECULE: O=C1Cc2cc(-c3ccncc3)ccc2N1
IC50: 100 to 300 µM
--
MOLECULE: Cc1cc(N)ncc1-c1ccc2c(c1)CC(=O)N2
IC50: 100 to 300 µM
--
MOLECULE: O=C1Cc2cnc(-c3ccncc3)cc2N1
IC50: 100 to 300 µM
--
MOLECULE: O=C1Cc2ccc(NC(=O)c3ccncc3)cc2N1 [Compound 032, N-(2-oxoindolin-6-yl)isonicotinamide]
IC50: 100 to 300 µM
--
MOLECULE: CNc1cc(-c2ccc3c(c2)CC(=O)N3)ccn1
IC50: 100 to 300 µM
